assayed.target: DENV2 NS2B–NS3 protease (Dengue virus type 2, UniProt P14340)
Construct: Activity of recombinant dengue 2 virus NS3 protease in the presence of a truncated NS2B co-factor; The N-terminal domain of NS3 contains a highly conserved protease-active core; made in house; host or cells: Escherichia coli BL21(DE3)
Sequence (P14340 1476-1653): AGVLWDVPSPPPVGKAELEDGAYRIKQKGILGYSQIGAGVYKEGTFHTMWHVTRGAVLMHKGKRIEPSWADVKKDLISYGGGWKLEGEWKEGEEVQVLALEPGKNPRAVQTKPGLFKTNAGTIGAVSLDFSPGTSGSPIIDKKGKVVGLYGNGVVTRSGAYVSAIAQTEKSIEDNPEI
Sequence (P14340 1398-1437): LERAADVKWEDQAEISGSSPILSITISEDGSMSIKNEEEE
assay.overview: In vitro DENV2 NS2B/NS3pro inhibition assay using a FRET substrate
Type: biochemical
setup.conditions: IC50 (µM), DENV protease inhibitory activity, 5 µM substrate, 10 nM NS2b-NS3pro, compounds at 1, 10 and 100 µM, 1 h at RT; compounds 3ao–3av
IC50 less than 30 µM is met; IC50 greater than or equal to 30 µM is not met.

Observe how each entry below is paired with its result.
{"columns": ["smiles.text", "assayed.target", "category.label"],
 "data": [
  ["C/C(=N\\Nc1nc(-c2ccc(C)cc2)cs1)c1ccc(O)cc1", "DENV2 NS2B–NS3 protease (Dengue virus type 2, UniProt P14340)", "not met"],
  ["C/C(=N\\Nc1nc(-c2ccc(F)cc2)cs1)c1ccc(O)cc1", "DENV2 NS2B–NS3 protease (Dengue virus type 2, UniProt P14340)", "not met"],
  ["C/C(=N\\Nc1nc(-c2ccc(C)cc2)cs1)c1cc(O)cc(O)c1", "DENV2 NS2B–NS3 protease (Dengue virus type 2, UniProt P14340)", "met"]
]}

Lab log: compare recorded IC50 with 30 µM; is it strictly lower for `C/C(=N\Nc1nc(-c2ccccc2)cs1)c1cc(O)cc(O)c1` ? not met

Lab log: compare recorded IC50 with 30 µM; is it strictly lower for `C/C(=N\Nc1nc(-c2ccc(F)cc2)cs1)c1cc(O)cc(O)c1` ? not met

Lab log: compare recorded IC50 with 30 µM; is it strictly lower for `COc1ccc(-c2csc(N/N=C(\C)c3cc(O)cc(O)c3)n2)cc1` ? met

Lab log: compare recorded IC50 with 30 µM; is it strictly lower for `COc1ccc(-c2csc(N/N=C(\C)c3ccc(O)cc3)n2)cc1` ? met

Lab log: compare recorded IC50 with 30 µM; is it strictly lower for `C/C(=N\Nc1nc(-c2ccccc2)cs1)c1ccc(O)cc1` ? not met

----------
assayed.target: DENV2 NS2B–NS3 protease (Dengue virus type 2)
Construct: Activity of recombinant dengue 2 virus NS3 protease in the presence of a truncated NS2B co-factor; The N-terminal domain of NS3 contains a highly conserved protease-active core; made in house; host or cells: Escherichia coli BL21(DE3)
assay.overview: In vitro DENV2 NS2B/NS3pro inhibition assay using a FRET substrate
Type: biochemical
setup.conditions: IC50 (µM), DENV protease inhibitory activity, 5 µM substrate, 10 nM NS2b-NS3pro, compounds at 1, 10 and 100 µM, 1 h at RT; compounds 3s-3an
measurement.type: IC50 (µM)
Numeric only. Scale: µM

For orientation, consider the following solved cases.
{"columns": ["smiles.text", "measured"],
 "data": [
  ["COc1cccc(/C(C)=N/Nc2nc(-c3ccc(Cl)cc3)cs2)c1", 263],
  ["C/C(=N\\Nc1nc(-c2cccc([N+](=O)[O-])c2)cs1)c1ccc(C)cc1", 113],
  ["COc1cccc(/C(C)=N/Nc2nc(-c3cccc([N+](=O)[O-])c3)cs2)c1", 387],
  ["COc1ccccc1/C(C)=N/Nc1nc(-c2cccc([N+](=O)[O-])c2)cs1", 193],
  ["C/C(=N\\Nc1nc(-c2cccc([N+](=O)[O-])c2)cs1)c1ccc(O)cc1", 28.7]
]}

Fill in IC50 for record `C/C(=N\Nc1nc(-c2cccc([N+](=O)[O-])c2)cs1)c1cc(O)cc(O)c1` 27.4

Fill in IC50 for record `COc1ccc(/C(C)=N/Nc2nc(-c3ccc(Cl)cc3)cs2)cc1` 399

Fill in IC50 for record `C/C(=N\Nc1nc(-c2ccc(Cl)cc2)cs1)c1cc(O)cc(O)c1` 92.3
